Value source: patent US11912789

- TARGET OF ASSAY: Lymphocyte-specific protein tyrosine kinase (Lck), enzyme in cell-free kinase assay (human, UniProt P06239 1-509, limits assumed)
- Sequence (P06239 whole entry): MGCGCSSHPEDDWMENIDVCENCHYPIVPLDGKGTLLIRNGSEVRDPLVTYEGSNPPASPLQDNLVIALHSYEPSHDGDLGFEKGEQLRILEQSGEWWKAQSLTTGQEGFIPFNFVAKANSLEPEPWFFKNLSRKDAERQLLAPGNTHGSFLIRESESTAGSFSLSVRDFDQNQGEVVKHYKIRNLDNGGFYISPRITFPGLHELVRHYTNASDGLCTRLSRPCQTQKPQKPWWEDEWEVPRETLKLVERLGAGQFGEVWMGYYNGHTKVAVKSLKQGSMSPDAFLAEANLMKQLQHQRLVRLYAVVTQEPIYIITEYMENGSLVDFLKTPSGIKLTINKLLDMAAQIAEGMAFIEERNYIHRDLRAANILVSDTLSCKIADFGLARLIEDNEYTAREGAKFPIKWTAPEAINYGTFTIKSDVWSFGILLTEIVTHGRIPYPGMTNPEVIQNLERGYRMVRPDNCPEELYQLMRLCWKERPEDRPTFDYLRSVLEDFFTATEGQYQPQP
- EXPERIMENT: cell-based or functional assay
Please provide measured Lck Activation above control, 1 µM for the entries that follow.

Note to self: Lck Activation above control, 1 µM recorded for `RVKVKVVVVR` was 13%

The reported Lck Activation above control, 1 µM of the binder `RVKVKVVVV` was 518%

Entry under test: `RSKAKNPLY` . Its Lck Activation above control, 1 µM was 0%

Looking up `RSKAANPLY` , I see its Lck Activation above control, 1 µM listed as 0%

Lck Activation above control, 1 µM reading for `ASKAKNPLY` : 0%

Per the records, this binder ( `SKAKNPLYR` ) has Lck Activation above control, 1 µM equal to 0%

Given item `RSKAKNPLYR` , the value recorded as its Lck Activation above control, 1 µM is 0%

In plain terms, `RSRARNPLY` has a documented Lck Activation above control, 1 µM of 0%
